target: T1, M13; assay: scFv-phage ELISA
T1 construct: also called PD1 mutant M13
Each entry below carries its recorded OD490.
Just the number.

| Binder | OD490 |
| --- | --- |
| PD1-45F1 (antibody, V domains shown, scFv-phage in the screening ELISA; later whole IgG) VH: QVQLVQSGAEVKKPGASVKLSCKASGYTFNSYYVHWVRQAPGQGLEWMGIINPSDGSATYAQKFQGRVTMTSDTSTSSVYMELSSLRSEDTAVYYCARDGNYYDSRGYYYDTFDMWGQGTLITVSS VL: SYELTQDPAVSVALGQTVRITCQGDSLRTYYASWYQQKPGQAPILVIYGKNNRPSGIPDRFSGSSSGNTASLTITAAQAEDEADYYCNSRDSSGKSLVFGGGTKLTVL | 2.2 |
| PD1-49A2 (antibody, V domains shown, scFv-phage in the screening ELISA; whole IgG in the other assays; also called Parent 49A2) VH: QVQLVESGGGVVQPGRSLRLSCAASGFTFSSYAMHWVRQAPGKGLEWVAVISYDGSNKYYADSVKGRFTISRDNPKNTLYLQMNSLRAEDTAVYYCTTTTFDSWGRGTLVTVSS VL: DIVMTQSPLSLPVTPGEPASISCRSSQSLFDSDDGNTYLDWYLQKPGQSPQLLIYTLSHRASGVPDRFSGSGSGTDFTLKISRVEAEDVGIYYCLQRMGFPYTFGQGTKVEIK | 3.9 |
| PD1-45D6 (antibody, V domains shown, scFv-phage in the screening ELISA; whole IgG in the other assays) VH: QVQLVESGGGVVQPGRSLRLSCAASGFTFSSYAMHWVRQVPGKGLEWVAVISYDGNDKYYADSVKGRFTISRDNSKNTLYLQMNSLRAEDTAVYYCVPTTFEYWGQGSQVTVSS VL: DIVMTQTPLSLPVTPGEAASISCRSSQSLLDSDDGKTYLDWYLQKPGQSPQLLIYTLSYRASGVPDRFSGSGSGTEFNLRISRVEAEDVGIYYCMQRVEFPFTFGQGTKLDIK | 4 |
| PD1-44B5 (antibody, V domains shown, scFv-phage in the screening ELISA; later whole IgG) VH: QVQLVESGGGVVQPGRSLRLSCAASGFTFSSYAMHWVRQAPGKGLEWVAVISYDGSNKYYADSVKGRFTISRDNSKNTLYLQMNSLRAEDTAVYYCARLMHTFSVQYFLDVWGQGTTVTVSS VL: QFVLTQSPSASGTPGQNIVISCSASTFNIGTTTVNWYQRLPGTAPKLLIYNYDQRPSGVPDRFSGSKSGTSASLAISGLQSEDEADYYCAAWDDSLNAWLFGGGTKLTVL | 3.7 |

INPUT: If you can, please state the reported OD490 value of PD1-51D9 (antibody, V domains shown, scFv-phage in the screening ELISA; whole IgG in the other assays) VH: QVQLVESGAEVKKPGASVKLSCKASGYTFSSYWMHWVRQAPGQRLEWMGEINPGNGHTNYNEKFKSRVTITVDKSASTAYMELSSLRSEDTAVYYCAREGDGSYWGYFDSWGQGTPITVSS VL: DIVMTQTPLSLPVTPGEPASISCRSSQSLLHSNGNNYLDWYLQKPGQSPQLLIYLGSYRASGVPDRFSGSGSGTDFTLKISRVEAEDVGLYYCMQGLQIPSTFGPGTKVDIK .
OUTPUT: 0.7

The origin of these recorded values is patent US20190248900A1.
